target: Glypican-3 (GPC3) (UniProt P51654;P51654 P51654:25-358,P51654:359-554); assay: flow; GPC3+ HEK293 cells; details: tags: overexpressed in engineered HEK293 cells (GPC3+ HEK293); stem 2 extended by 2 bp
Measured quantity: Kd (nM)
// return numeric value only (unit: nM, not printed)

q: Dear colleague, I am looking for the recorded Kd of the following binder: CGUCAUCGGGUUGCUACCCAAGGCACCAGGAGGUGCGAUGACG (ssRNA, fully 2'-OMe) [GRX2101]
a: 29.3
